src = ChEMBL document CHEMBL3885861

Organism: Rattus norvegicus
Experiment: Open TG-GATES - Regimen: Daily Repeat
Type: toxicity, organism-based, Sprague-Dawley
Set-up: regimen Daily Repeat, gender Male, age 6 weeks
Details: in vivo, po, 1000 mg/kg, […], tissue Plasma, route gavage, dose level High, time 28 day
The entries below come with measured AST values attached.
Please state the figure in IU/L; there is no need to write the unit.

| Compound | AST / IU/L |
| --- | --- |
| Cc1nnc2n1-c1ccc(Cl)cc1C(c1ccccc1Cl)=NC2 [TRIAZOLAM] | 68.8 |

Output measured AST for this item: O=C(OC[C@H]1O[C@@H](OC(=O)c2cc(O)c(O)c(OC(=O)c3cc(O)c(O)c(O)c3)c2)[C@H](OC(=O)c2cc(O)c(O)c(OC(=O)c3cc(O)c(O)c(O)c3)c2)[C@@H](OC(=O)c2cc(O)c(O)c(OC(=O)c3cc(O)c(O)c(O)c3)c2)[C@@H]1OC(=O)c1cc(O)c(O)c(OC(=O)c2cc(O)c(O)c(O)c2)c1)c1cc(O)c(O)c(OC(=O)c2cc(O)c(O)c(O)c2)c1 [TANNIC ACID] 54

Supply recorded AST for COC(=O)C1=C(C)NC(C)=C(C(=O)OC)C1c1ccccc1[N+](=O)[O-] [NIFEDIPINE] here. 64.4

Provide one value: measured AST of CN/C(=N/CCSCc1nc[nH]c1C)NC#N [CIMETIDINE] 66.6

Report measured AST; entry is CCOc1ccc(NC(C)=O)cc1 [PHENACETIN] 72.2

State, in one line, measured AST of CNC(=C[N+](=O)[O-])NCCSCc1ccc(CN(C)C)o1 [RANITIDINE] 61

* * *

Organism: Rattus norvegicus
Assay: Open TG-GATES - Regimen: Single
Type: toxicity, organism-based, Sprague-Dawley
Set-up: regimen Single, gender Male, age 6 weeks
Conditions: in vivo, po, 300 mg/kg, 6 h, tissue Blood, route gavage, dose level Middle
Listing: Eos of selected compounds
State the answer as a number, implicitly in %.

| Compound | Unit descriptor | Eos |
| --- | --- | --- |
| CNC(=C[N+](=O)[O-])NCCSCc1ccc(CN(C)C)o1 [RANITIDINE] | % | 1 |
| O=C(OC[C@H]1O[C@@H](OC(=O)c2cc(O)c(O)c(OC(=O)c3cc(O)c(O)c(O)c3)c2)[C@H](OC(=O)c2cc(O)c(O)c(OC(=O)c3cc(O)c(O)c(O)c3)c2)[C@@H](OC(=O)c2cc(O)c(O)c(OC(=O)c3cc(O)c(O)c(O)c3)c2)[C@@H]1OC(=O)c1cc(O)c(O)c(OC(=O)c2cc(O)c(O)c(O)c2)c1)c1cc(O)c(O)c(OC(=O)c2cc(O)c(O)c(O)c2)c1 [TANNIC ACID] | % | 1 |
| Cc1nnc2n1-c1ccc(Cl)cc1C(c1ccccc1Cl)=NC2 [TRIAZOLAM] | % | 0.4 |
| COC(=O)C1=C(C)NC(C)=C(C(=O)OC)C1c1ccccc1[N+](=O)[O-] [NIFEDIPINE] | % | 0.6 |

Next compound, Eos to be filled in.
Give recorded Eos. CN/C(=N/CCSCc1nc[nH]c1C)NC#N [CIMETIDINE] 1

* * *

Reported MCV is given for each of the following compounds.
Organism: Rattus norvegicus
Assay: Open TG-GATES - Regimen: Single
Assay type: toxicity, organism-based, Sprague-Dawley
Parameters: regimen Single, gender Male, age 6 weeks
Details: in vivo, po, 300 mg/kg, 3 h, tissue Blood, route gavage, dose level Middle
The reply should be a number in fL, with the unit left off.

| Smiles input | Assay metric | Result |
| --- | --- | --- |
| Cc1nnc2n1-c1ccc(Cl)cc1C(c1ccccc1Cl)=NC2 | MCV | 63.6 |
| O=C(OC[C@H]1O[C@@H](OC(=O)c2cc(O)c(O)c(OC(=O)c3cc(O)c(O)c(O)c3)c2)[C@H](OC(=O)c2cc(O)c(O)c(OC(=O)c3cc(O)c(O)c(O)c3)c2)[C@@H](OC(=O)c2cc(O)c(O)c(OC(=O)c3cc(O)c(O)c(O)c3)c2)[C@@H]1OC(=O)c1cc(O)c(O)c(OC(=O)c2cc(O)c(O)c(O)c2)c1)c1cc(O)c(O)c(OC(=O)c2cc(O)c(O)c(O)c2)c1 | MCV | 65.5 |

Input CN/C(=N/CCSCc1nc[nH]c1C)NC#N , output reported MCV. 63.8

// Input: CNC(=C[N+](=O)[O-])NCCSCc1ccc(CN(C)C)o1 . Output its MCV only. 63.4

Please give measured MCV of the following entry: COC(=O)C1=C(C)NC(C)=C(C(=O)OC)C1c1ccccc1[N+](=O)[O-] 63.8
